- System Under Test: Nav1.7 (or SCN9A) channel; HEK cells stably transfected with hSCN9A (Homo sapiens, UniProt Q15858)
- Construct: expressed in transfected cells
- Sequence (Q15858 whole entry): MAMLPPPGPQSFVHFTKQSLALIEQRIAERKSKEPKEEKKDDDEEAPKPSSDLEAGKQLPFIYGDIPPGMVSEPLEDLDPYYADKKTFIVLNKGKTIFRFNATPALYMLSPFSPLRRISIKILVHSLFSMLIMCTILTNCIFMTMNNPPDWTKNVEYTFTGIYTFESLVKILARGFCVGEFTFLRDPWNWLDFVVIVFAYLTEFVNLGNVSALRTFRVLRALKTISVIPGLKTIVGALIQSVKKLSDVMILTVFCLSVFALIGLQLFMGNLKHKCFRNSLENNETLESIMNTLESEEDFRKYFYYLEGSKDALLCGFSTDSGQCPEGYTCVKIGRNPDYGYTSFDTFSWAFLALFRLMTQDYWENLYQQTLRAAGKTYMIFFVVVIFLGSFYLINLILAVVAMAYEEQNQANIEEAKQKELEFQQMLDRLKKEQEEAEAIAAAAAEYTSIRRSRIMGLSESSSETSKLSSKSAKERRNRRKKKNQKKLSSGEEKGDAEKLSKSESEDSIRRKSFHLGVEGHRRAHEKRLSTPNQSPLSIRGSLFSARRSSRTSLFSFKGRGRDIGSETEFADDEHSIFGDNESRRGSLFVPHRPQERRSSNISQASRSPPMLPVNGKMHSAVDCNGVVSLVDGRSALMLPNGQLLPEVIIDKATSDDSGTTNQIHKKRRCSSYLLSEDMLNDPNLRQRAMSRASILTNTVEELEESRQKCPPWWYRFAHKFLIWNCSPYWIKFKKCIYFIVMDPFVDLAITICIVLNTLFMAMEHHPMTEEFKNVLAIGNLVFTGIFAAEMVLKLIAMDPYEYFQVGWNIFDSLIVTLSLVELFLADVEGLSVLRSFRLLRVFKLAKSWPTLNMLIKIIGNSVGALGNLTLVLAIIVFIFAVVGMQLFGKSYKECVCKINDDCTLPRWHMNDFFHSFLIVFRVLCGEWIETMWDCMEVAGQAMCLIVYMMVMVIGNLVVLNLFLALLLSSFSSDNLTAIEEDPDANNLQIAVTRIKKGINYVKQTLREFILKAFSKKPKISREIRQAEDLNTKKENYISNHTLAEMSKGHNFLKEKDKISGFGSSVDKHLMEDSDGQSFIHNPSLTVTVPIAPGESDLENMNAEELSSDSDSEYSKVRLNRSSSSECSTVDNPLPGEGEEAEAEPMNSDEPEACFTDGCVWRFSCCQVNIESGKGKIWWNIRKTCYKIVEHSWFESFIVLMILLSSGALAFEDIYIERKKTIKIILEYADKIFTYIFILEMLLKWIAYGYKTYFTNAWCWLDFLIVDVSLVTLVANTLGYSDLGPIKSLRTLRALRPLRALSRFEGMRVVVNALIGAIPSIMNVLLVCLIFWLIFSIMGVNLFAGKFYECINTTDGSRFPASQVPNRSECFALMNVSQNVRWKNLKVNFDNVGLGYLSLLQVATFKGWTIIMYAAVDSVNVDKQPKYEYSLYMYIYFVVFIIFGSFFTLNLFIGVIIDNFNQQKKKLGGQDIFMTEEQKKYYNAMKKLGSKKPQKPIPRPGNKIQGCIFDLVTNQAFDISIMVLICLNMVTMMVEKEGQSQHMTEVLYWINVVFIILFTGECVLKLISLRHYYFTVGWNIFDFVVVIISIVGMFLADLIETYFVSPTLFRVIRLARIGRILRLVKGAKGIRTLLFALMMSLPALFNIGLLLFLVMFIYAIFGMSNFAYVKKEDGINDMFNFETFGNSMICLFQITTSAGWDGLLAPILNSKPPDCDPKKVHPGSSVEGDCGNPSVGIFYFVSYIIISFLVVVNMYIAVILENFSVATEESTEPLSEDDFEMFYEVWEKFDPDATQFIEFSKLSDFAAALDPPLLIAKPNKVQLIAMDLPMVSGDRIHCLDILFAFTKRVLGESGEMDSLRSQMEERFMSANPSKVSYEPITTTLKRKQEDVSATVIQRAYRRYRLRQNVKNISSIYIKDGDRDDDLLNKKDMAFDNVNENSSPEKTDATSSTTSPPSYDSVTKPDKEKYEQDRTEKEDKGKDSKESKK
- Test Name: Nav1.7 block, PatchXpress 7000 automated whole-cell voltage clamp, estimated IC50 (EIC50)
- Format: cell-based
- Settings: estimated IC50; hSCN9A HEK cells, PatchXpress platform; Examples 283-814
Experimental Readout: log10 of IC50 (log10 of the value in nM)
# values: log10(IC50), units nM

Which log10 of IC50 value is on record for `Cn1nc(C(F)(F)F)cc1-c1ccc(Oc2ccc(S(=O)(=O)Nc3ncc(F)s3)cc2F)cc1` ?
3.23

Which log10 of IC50 value is on record for `COc1ccc(-c2ccnn2C)c(Oc2ccc(S(=O)(=O)Nc3nccs3)cc2C#N)c1` ?
2.15

I would be grateful if you could provide log10 of IC50 for each of the following entries.
1. Cn1nc(C(F)(F)F)cc1-c1ccc(Oc2ccc(S(=O)(=O)Nc3ncns3)cc2C#N)c(C#N)c1
2. N#Cc1cc(S(=O)(=O)Nc2nccs2)ccc1Oc1ccccc1-c1cn[nH]c1N
3. Cn1nc(C(F)(F)F)cc1-c1ccc(Oc2ccc(S(=O)(=O)Nc3nccs3)cc2C#N)cn1
4. N#Cc1cc(S(=O)(=O)Nc2ncns2)ccc1Oc1ccc(I)cc1-c1ccn[nH]1
5. N#Cc1cc(S(=O)(=O)Nc2nccs2)ccc1Oc1ccc(Cl)cc1CN1CCOCC1
6. O=S(=O)(Nc1ncns1)c1cc(Cl)c(Oc2ccc(OC(F)F)cc2C2CCNCC2)cc1F
7. Nc1cccc(-c2cc(C(F)(F)F)ccc2Oc2cc(F)c(S(=O)(=O)Nc3ncns3)cc2F)n1

1. 1.97
2. 2.08
3. 3.46
4. 1.04
5. 2.76
6. 0.40
7. 1.15

I would be grateful if you could provide log10 of IC50 for each of the following entries.
1. COCCn1nccc1-c1cc(Cl)ccc1Oc1cc(F)c(S(=O)(=O)Nc2nncs2)cc1Cl
2. Cn1nccc1-c1cc(Cl)ccc1Oc1ncc(S(=O)(=O)Nc2cscn2)cc1Cl
3. N#Cc1cc(S(=O)(=O)Nc2nccs2)ccc1Oc1ccc(Cl)cc1-n1nccn1
4. Cn1nc(C(F)(F)F)cc1-c1ccc(Oc2ccc(S(=O)(=O)Nc3nccs3)cc2C#N)c(Cl)c1
5. N#Cc1cc(S(=O)(=O)Nc2nccs2)ccc1Oc1cnn(-c2cccc(C(F)(F)F)c2)c1
6. N#Cc1cc(S(=O)(=O)Nc2nccs2)ccc1Oc1ccc(-n2ccc(C(F)(F)F)n2)nc1
7. N#Cc1cc(S(=O)(=O)Nc2nccs2)ccc1Oc1cccc(-c2cc(C(F)(F)F)ccn2)c1

2.11
3.52
2.89
1.51
3.53
3.32
3.26

I would be grateful if you could provide log10 of IC50 for each of the following entries.
1. Cc1cc(-c2ccc(Oc3ccc(S(=O)(=O)Nc4nccs4)cc3C#N)cc2)n(CCO)n1
2. Cc1cn(C)nc1-c1ccc(Oc2ccc(S(=O)(=O)Nc3nccs3)cc2C#N)cc1
3. O=S(=O)(Nc1ncns1)c1cc(Cl)c(Oc2ccc(Cl)cc2C2CNC2)cc1F

3.28
3.53
1.65

I would be grateful if you could provide log10 of IC50 for each of the following entries.
1. Cn1nccc1-c1cc(C(F)(F)F)ccc1Oc1cc(F)c(S(=O)(=O)Nc2ncns2)cc1F
2. Cn1nc(C(F)(F)F)cc1-c1cc(F)cc(Oc2ccc(S(=O)(=O)Nc3nccs3)cc2C#N)c1
3. Cn1nccc1-c1cc(F)ccc1Oc1cc(F)c(S(=O)(=O)Nc2ccncn2)cc1Cl
4. N#Cc1cc(S(=O)(=O)Nc2nccs2)ccc1Oc1ccc(Br)cc1-c1cn[nH]c1

1. 1.46
2. 3.04
3. 2.11
4. 0.15

---

Assign IC50 to each entry below.
- System Under Test: Nav1.7 (or SCN9A) channel; HEK cells stably transfected with hSCN9A (Homo sapiens, UniProt Q15858)
- Construct: expressed in transfected cells
- Test Name: Nav1.7 block, PatchXpress 7000 automated whole-cell voltage clamp, estimated IC50 (EIC50)
- Type: cell-based
- Settings: estimated IC50; hSCN9A HEK cells, PatchXpress platform; Examples 283-814
Numbers only, in nM.

// below: answered compounds
Which IC50 value is on record for `CN1CC(n2nccc2-c2cc(F)ccc2Oc2cc(F)c(S(=O)(=O)Nc3cscn3)cc2Cl)C1` ?
15

Which IC50 value is on record for `CCNC(=O)c1ccc(-c2cccc(Oc3ccc(S(=O)(=O)Nc4ccc(F)cn4)cc3C#N)c2)cc1` ?
8600

Which IC50 value is on record for `CN(C)CCn1nc(C(F)(F)F)cc1-c1cccc(Oc2ccc(S(=O)(=O)Nc3nccs3)cc2C#N)c1` ?
200

I would be grateful if you could provide IC50 for each of the following entries.
1. Cn1nccc1-c1cc(CCO)ccc1Oc1ccc(S(=O)(=O)Nc2ncc(F)s2)cc1C#N
2. CCn1nc(-c2ccc(Oc3ccc(S(=O)(=O)Nc4nccs4)cc3C#N)cc2)cc1C1CC1
3. Cc1scnc1NS(=O)(=O)c1ccc(Oc2ccccc2-c2ccccc2)c(C#N)c1
4. Cn1cc(-c2cc(OC(F)(F)F)ccc2Oc2cc(F)c(S(=O)(=O)Nc3cscn3)cc2F)cn1
5. N#Cc1cc(S(=O)(=O)Nc2ncc(Cl)s2)ccc1Oc1ccc(F)cc1-c1cn[nH]c1
6. Cn1ccc(-c2cc(Cl)ccc2Oc2ccc(S(=O)(=O)Nc3ncns3)cc2C#N)n1
7. N#Cc1cc(S(=O)(=O)Nc2ncc(Cl)s2)ccc1Oc1ccc(Cl)cc1C1CNC1

[430, 2600, 15000, 2800, 40, 530, 160]

---

- System Under Test: Nav1.7 (or SCN9A) channel; HEK cells stably transfected with hSCN9A (Homo sapiens, UniProt Q15858)
- Construct: expressed in transfected cells
- Test Name: Nav1.7 block, PatchXpress 7000 automated whole-cell voltage clamp, estimated IC50 (EIC50)
- Type: cell-based
- Settings: PatchXpress platform; hSCN9A HEK cells held at V1/2 of inactivation; estimated IC50
Rule for this label: Yes means IC50 is less than 700 nM; No means IC50 is at least 700 nM.

# count of solved cases: 10
Dear reviewer, please state whether N#Cc1cc(S(=O)(=O)Nc2ncc[nH]2)ccc1Oc1ccccc1-c1ccccc1 [Example 117] has IC50 strictly beneath 700 nM.
No

Dear reviewer, please state whether N#Cc1cc(S(=O)(=O)Nc2ncns2)ccc1Oc1cnc(N)nc1-c1ccc(Cl)cc1 [Example 18] has IC50 strictly beneath 700 nM.
No

Dear reviewer, please state whether N#Cc1cc(S(=O)(=O)Nc2nccs2)ccc1Oc1ccc(Cl)cc1-c1ccccc1 [Example 156] has IC50 strictly beneath 700 nM.
Yes

Dear reviewer, please state whether Cc1ccc(-c2ncccc2Oc2ccc(S(=O)(=O)Nc3ncns3)cc2C#N)cc1 [Example 17] has IC50 strictly beneath 700 nM.
No

Dear reviewer, please state whether N#Cc1cc(S(=O)(=O)Nc2ncns2)ccc1Oc1ccccc1-c1ccc(OC(F)(F)F)cc1 [Example 57] has IC50 strictly beneath 700 nM.
Yes

Dear reviewer, please state whether Cc1cccc(-c2cc(F)cc(F)c2)c1Oc1ccc(S(=O)(=O)Nc2ncns2)cc1C#N [Example 45] has IC50 strictly beneath 700 nM.
No

Dear reviewer, please state whether O=S(=O)(Nc1ncns1)c1ccc(Oc2ccn(Cc3ccc(Cl)cc3)n2)c(C(F)(F)F)c1 [Example 204] has IC50 strictly beneath 700 nM.
No

Dear reviewer, please state whether O=S(=O)(Nc1nccs1)c1ccc(Oc2ccc(F)cc2-c2ccn[nH]2)c(F)c1 [Example 218] has IC50 strictly beneath 700 nM.
Yes

Dear reviewer, please state whether CCOC(=O)Cn1nccc1-c1cc(Cl)ccc1Oc1ccc(S(=O)(=O)Nc2ncns2)cc1C#N [Example 29] has IC50 strictly beneath 700 nM.
Yes

Dear reviewer, please state whether O=S(=O)(Nc1ncns1)c1cc(F)c(Oc2ccccc2-c2ccccc2)cc1F [Example 266] has IC50 strictly beneath 700 nM.
Yes

***
Dear reviewer, please state whether N#Cc1cc(S(=O)(=O)Nc2nccs2)ccc1Oc1ccc(Cl)cc1-c1ccccn1 [Example 164] has IC50 strictly beneath 700 nM.
Yes

Dear reviewer, please state whether Cn1nccc1-c1cc(Cl)cc(Cl)c1Oc1ccc(S(=O)(=O)Nc2ncns2)cc1C#N [Example 71] has IC50 strictly beneath 700 nM.
No

Dear reviewer, please state whether O=S(=O)(Nc1ncns1)c1ccc(Oc2cc(C(F)(F)F)nn2-c2cc(F)ccc2F)c(F)c1 [Example 253] has IC50 strictly beneath 700 nM.
Yes

---

- System Under Test: Nav1.7 (or SCN9A) channel; HEK cells stably transfected with hSCN9A (Homo sapiens)
- Construct: expressed in transfected cells
- Test Name: Nav1.7 block, PatchXpress 7000 automated whole-cell voltage clamp, estimated IC50 (EIC50)
- Format: cell-based
- Settings: PatchXpress platform; hSCN9A HEK cells held at V1/2 of inactivation; estimated IC50
Experimental Readout: IC50 (nM)
One number for each entry, in nM.

Which IC50 value is on record for `Cc1nn(Cc2ccccc2)cc1-c1ccccc1Oc1ccc(S(=O)(=O)Nc2ncns2)cc1F` ?
24500

Which IC50 value is on record for `N#Cc1cc(S(=O)(=O)Nc2nccs2)ccc1Oc1ccc(-c2cc(C(F)(F)F)n[nH]2)cc1` ?
600

Which IC50 value is on record for `O=S(=O)(Nc1nccs1)c1ccc(Oc2ccc(-c3ccccc3)cc2)c(F)c1` ?
2950

// moving on: another record for IC50
Which IC50 value is on record for `N#Cc1cc(S(=O)(=O)Nc2ncns2)ccc1Oc1ccc(CC2CC2)cc1` ?
2790
